Test system: EM9 cells
run_description: FaraA cytotoxicity in XRCC1 mutant EM9 CHO cells
Type: cell-based
condition_description: Cricetulus griseus, CHO; XRCC1 mutant EM9 cells; FaraA alone, 24 hours
measured_metric: IC50 (µM)
Give bare numbers, in µM.

What value of IC50 has been recorded for this entry: Nc1nc(F)nc2c1ncn2[C@@H]1O[C@H](CO)[C@@H](O)[C@@H]1O
7.5

---

Tested on: HCT116 cells
run_description: Clonogenic survival in HCT116 (MMR-deficient) colon carcinoma cells
Type: cell-based, human
condition_description: Homo sapiens, HCT-116, FaraA alone, 24 hours, read-out: IC50 for FaraA treatment
measured_metric: pIC50
Give bare numbers, as −log10 of the molar value.

Please provide the recorded pIC50 for Nc1nc(F)nc2c1ncn2[C@@H]1O[C@H](CO)[C@@H](O)[C@@H]1O , tested on HCT116 cells.
5.05

---

Tested on: A2780/cp70 cells
run_description: Clonogenic survival in A2780/cp70 (MMR-deficient) ovary carcinoma cells
Format: cell-based, human
condition_description: IUDR 48 hours, colonies counted after 7-10 days, read-out: IC50 for IUDR alone
measured_metric: pIC50
Answers are plain numbers, as −log10 of the molar value.

Please provide the recorded pIC50 for O=c1[nH]c(=O)n([C@H]2C[C@H](O)[C@@H](CO)O2)cc1I [IUDR, IodoUridineDeoxyRibose] , tested on A2780/cp70 cells.
5.10

---

Test system: HCT116 cells
run_description: Clonogenic survival in HCT116 (MMR-deficient) colon carcinoma cells
Assay type: cell-based, human
condition_description: Homo sapiens, HCT-116, FaraA + 6 mM MX, 24 hours, read-out: IC50 for FaraA with 6 mM MX
Protocol: FIG. 2. […] Cells were treated for 48 hours with IUDR alone (closed symbols) or with IUDR and 6 mM Methoxyamine (open symbols). Surviving colonies were counted in triplicate 7-10 days after treatment. Error bars, Standard Error. FIG. 4. […] Cells were treated for 24 hours with FaraA alone or with FaraA and 6 mM Methoxyamine. Surviving colonies were counted in triplicate 7-10 days after treatment. Error bars, Standard Error. […]
measured_metric: pIC50
One number for each entry, as −log10 of the molar value.

Please provide the recorded pIC50 for Nc1nc(F)nc2c1ncn2[C@@H]1O[C@H](CO)[C@@H](O)[C@@H]1O , tested on HCT116 cells.
5.52
